System: Vero
Assay: Cytotoxicity against African green monkey Vero cells measured after 24 hrs by resazurin dye based fluorescence assay
Assay type: cell-based
Conditions: Chlorocebus sabaeus
The threshold is 30 µM. Values of IC50 beneath it are tagged fulfilled; values meeting or exceeding it are tagged not fulfilled.

Look over these answered cases.
| molecule | systemUnderTest | assignedCategory |
| --- | --- | --- |
| O=C1c2cccc3c(N4CCN(CCO)CC4)ccc(c23)C(=O)N1CCCCCCNc1ccnc2cc(Cl)ccc12 | Vero | fulfilled |
| O=C1c2cccc3c(N4CCN(CCO)CC4)ccc(c23)C(=O)N1CCNc1ccnc2cc(Cl)ccc12 | Vero | not fulfilled |
| O=C1c2cccc3cccc(c23)C(=O)N1CCCCNc1ccnc2cc(Cl)ccc12 | Vero | fulfilled |
| O=C1c2cccc3c(Br)ccc(c23)C(=O)N1CCCCNc1ccnc2cc(Cl)ccc12 | Vero | fulfilled |
| O=C1c2cccc3c(Br)ccc(c23)C(=O)N1CCNc1ccnc2cc(Cl)ccc12 | Vero | fulfilled |
| O=C1c2cccc3c(N4CCCCC4)ccc(c23)C(=O)N1CCCNc1ccnc2cc(Cl)ccc12 | Vero | not fulfilled |

Hello, is IC50 of the following molecule strictly smaller than 30 µM? `O=C1c2cccc3c(Br)ccc(c23)C(=O)N1CCCCCCNc1ccnc2cc(Cl)ccc12` not fulfilled

Consider `O=C1c2cccc3c(N4CCCCC4)ccc(c23)C(=O)N1CCCCNc1ccnc2cc(Cl)ccc12` . Does its IC50 lie strictly below 30 µM? not fulfilled

Quick check: IC50 of O=C1OC(=O)c2cccc3cccc1c23 [1,8-NAPHTHALIC ANHYDRIDE] under 30 µM? not fulfilled

Criterion: IC50 strictly below 30 µM. Is it met by `O=C1c2cccc3c(Br)ccc(c23)C(=O)N1CCCCCCCCNc1ccnc2cc(Cl)ccc12` ? not fulfilled

Criterion: IC50 strictly below 30 µM. Is it met by `O=C1c2cccc3c(Br)ccc(c23)C(=O)N1CCCNc1ccnc2cc(Cl)ccc12` ? fulfilled

Below 30 µM on IC50? Entry `O=C1c2cccc3c(N4CCN(CCO)CC4)ccc(c23)C(=O)N1CCCNc1ccnc2cc(Cl)ccc12` not fulfilled

A record lists `O=C1OC(=O)c2ccc(Br)c3cccc1c23` . Is its IC50 below 30 µM? not fulfilled
